Ref: ChEMBL document CHEMBL4118132

- Tested on: Bacillus pumilus
- Protocol summary: Antibacterial activity against penicillin-susceptible Bacillus pumilus ATCC 63202 after 24 hrs by broth microdilution method
- Format: functional
- Details: ATCC 63202, 24 h
Quantity kind: MIC
Don't forget the unit after the value.

Solved entries (count: 4):
Smiles structure: Cc1cc(-c2ccccc2)cc2c3ccccc3c[n+](C)c12.[Cl-]
Assayed target: Bacillus pumilus
Quantity kind: MIC
Recorded measurement: 4 µg/mL
--
Smiles structure: COc1ccc(-c2ccc3c(c2)c2ccccc2c[n+]3C)cc1.[Cl-]
Assayed target: Bacillus pumilus
Quantity kind: MIC
Recorded measurement: 16 µg/mL
--
Smiles structure: C[n+]1cc2ccccc2c2cc(-c3ccccc3)ccc21.[Cl-]
Assayed target: Bacillus pumilus
Quantity kind: MIC
Recorded measurement: 16 µg/mL
--
Smiles structure: Cc1cc(-c2ccc(C(F)(F)F)cc2)cc2c3ccccc3c[n+](C)c12.[Cl-]
Assayed target: Bacillus pumilus
Quantity kind: MIC
Recorded measurement: 0.06 µg/mL

Kindly consider the entry below.
Incoming: Name the recorded MIC of the molecule listed here: `C[n+]1cc2ccccc2c2cc(-c3ccccc3C(F)(F)F)ccc21.[Cl-]`
Outgoing: 32 µg/mL
